- METHOD: Pharmacokinetic study in ICR mice
- Format: in vivo
- SETTINGS: male, mouse, po, 10 mg·kg^-1 by gavage, plasma
- Experimental: Each compound was prepared into a 10 mg/mL stock solution with DMSO. Mixed solvent preparation: Tween 80:PEG 400:Water=1:9:90 (v/v/v). […] Male 6-10 weeks old ICR mice (mouse source: Viton Lever Laboratory Animal Technology Co., Ltd.) were taken, 6 mice in each group, and the mice were fasted overnight and fed 4 hours after drug administration. […] Plasma concentration was determined by LC-MS/MS method. […]
READOUT LABEL: half-life (min)

Could you please provide reported half-life for COCc1ccc(Nc2nc(Nc3ccc4c(c3)CC[C@@H](N3CCCC3)CC4)ncc2Cl)c(P(C)(C)=O)c1 ? Thanks!
81

Give me measured half-life, please, for this compound: CN1CCN(Cc2ccc(Nc3ncc(Cl)c(Nc4ccccc4S(=O)(=O)N(C)C)n3)cc2)CC1 [Positive drug 2 (TP0903), reference compound]
72

====

- METHOD: Solubility in water and various pH media
- Assay type: physicochemical
- SETTINGS: simulated gastric fluid, thermodynamic from solid; pH 1.0, dilute hydrochloric acid with water
READOUT LABEL: solubility (mg/mL)
Numbers only here, please. The scale is mg/mL.

Answer with reported solubility of COCc1ccc(Nc2nc(Nc3ccc4c(c3)CC[C@@H](N3CCCC3)CC4)ncc2Cl)c(P(C)(C)=O)c1.Cc1ccc(S(=O)(=O)O)cc1 [crystal form B]
87.2

====

- METHOD: Solubility in water and various pH media
- Assay type: physicochemical
- SETTINGS: sodium acetate trihydrate/glacial acetic acid buffer, aqueous buffer, thermodynamic from solid; pH 4.5, sodium acetate trihydrate/glacial acetic acid
READOUT LABEL: solubility (µg/mL)
Please state the figure in µg/mL; there is no need to write the unit.

Quickly give me recorded solubility for COCc1ccc(Nc2nc(Nc3ccc4c(c3)CC[C@@H](N3CCCC3)CC4)ncc2Cl)c(P(C)(C)=O)c1.Cc1ccc(S(=O)(=O)O)cc1 [crystal form B]
2000

====

- METHOD: Solubility in water and various pH media
- Assay type: physicochemical
- SETTINGS: simulated gastric fluid, thermodynamic from solid; pH 2.0, dilute hydrochloric acid with water
READOUT LABEL: solubility (µg/mL)
Supply the numeric figure in µg/mL, leaving out any unit text.

Please report the measured solubility for COCc1ccc(Nc2nc(Nc3ccc4c(c3)CC[C@@H](N3CCCC3)CC4)ncc2Cl)c(P(C)(C)=O)c1.Cc1ccc(S(=O)(=O)O)cc1 [crystal form B]
4700

====

- METHOD: Solubility in water and various pH media
- Type: physicochemical
- SETTINGS: water, thermodynamic from solid
READOUT LABEL: solubility (µg/mL)
Numbers only; they are read as µg/mL.

Output solubility of COCc1ccc(Nc2nc(Nc3ccc4c(c3)CC[C@@H](N3CCCC3)CC4)ncc2Cl)c(P(C)(C)=O)c1.Cc1ccc(S(=O)(=O)O)cc1 [crystal form B]
1400

====

- METHOD: Solubility in water and various pH media
- Assay type: physicochemical
- SETTINGS: potassium dihydrogen phosphate/sodium hydroxide buffer, aqueous buffer, thermodynamic from solid; pH 6.0, potassium dihydrogen phosphate/sodium hydroxide
READOUT LABEL: solubility (µg/mL)
Write down the numeric answer in µg/mL and omit the unit.

Give the reported solubility for this molecule. COCc1ccc(Nc2nc(Nc3ccc4c(c3)CC[C@@H](N3CCCC3)CC4)ncc2Cl)c(P(C)(C)=O)c1.Cc1ccc(S(=O)(=O)O)cc1 [crystal form B]
1900
